# ASSAYED TARGET: Transient receptor potential cation channel subfamily V member 1 (Homo sapiens)
# Sequence (Q8NER1 whole entry): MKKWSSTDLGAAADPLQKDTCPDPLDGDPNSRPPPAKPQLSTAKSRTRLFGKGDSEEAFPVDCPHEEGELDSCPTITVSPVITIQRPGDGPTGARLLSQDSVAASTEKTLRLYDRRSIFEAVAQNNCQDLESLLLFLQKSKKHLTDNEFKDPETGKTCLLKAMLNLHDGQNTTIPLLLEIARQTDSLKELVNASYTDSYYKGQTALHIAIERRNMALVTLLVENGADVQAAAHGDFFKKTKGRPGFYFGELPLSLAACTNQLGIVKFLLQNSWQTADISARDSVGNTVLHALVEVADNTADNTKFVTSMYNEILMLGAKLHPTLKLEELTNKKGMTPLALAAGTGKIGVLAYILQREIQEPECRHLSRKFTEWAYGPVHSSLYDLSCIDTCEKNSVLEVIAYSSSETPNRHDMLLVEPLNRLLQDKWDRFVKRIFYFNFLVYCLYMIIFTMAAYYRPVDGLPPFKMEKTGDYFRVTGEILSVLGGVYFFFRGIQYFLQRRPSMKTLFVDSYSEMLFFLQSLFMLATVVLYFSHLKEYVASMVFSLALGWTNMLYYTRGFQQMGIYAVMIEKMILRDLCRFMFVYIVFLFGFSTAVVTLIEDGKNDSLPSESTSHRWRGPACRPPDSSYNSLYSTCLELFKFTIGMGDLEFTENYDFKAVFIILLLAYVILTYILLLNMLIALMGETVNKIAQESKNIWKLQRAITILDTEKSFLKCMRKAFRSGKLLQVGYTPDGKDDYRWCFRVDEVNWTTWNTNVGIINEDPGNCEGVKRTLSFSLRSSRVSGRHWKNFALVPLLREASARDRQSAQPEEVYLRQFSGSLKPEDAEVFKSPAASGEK
# ASSAY NAME: Agonist activity at human recombinant TRPV1 over expressed in HEK293 cells assessed as increase in intracellular calcium level by measuring efficacy by Fluo4-AM based assay

SMILES RECORD: C[C@@H](N)[C@@H](O)C/C=C\C/C=C\C/C=C\C/C=C\C/C=C\C/C=C\CCCCCC[C@H](O)[C@@H](C)N
EC50 [µM]: 3.7

###

Below are molecules with their IC50 as measured on Transient receptor potential cation channel subfamily V member 1 (Homo sapiens).

MOLECULE: O=C(CCc1ccccc1)CC(O)Cc1ccccc1 (centres undefined)
IC50: > 50 µM
--
MOLECULE: CC(C)c1cc(CCC(=O)CC(O)Cc2ccccc2)cc(C(C)C)c1O (centres undefined)
IC50: > 50 µM
--
MOLECULE: O=C(CCc1ccccc1)CC(O)CCCCCCc1ccccc1 (centres undefined)
IC50: > 10 µM
--
MOLECULE: O=C(CCc1ccc2c(c1)OCO2)CC(O)CCCCCCc1ccccc1 (centres undefined)
IC50: > 10 µM

Data origin, for the record: ChEMBL document CHEMBL5620371
